Tested on: OVCAR-5 ovarian
Test: NCI-60 one-dose screen, 48 h (100 = growth as untreated, 0 = no growth, -100 = all killed)
Conditions: 10 µM unless noted
The panel holds about 83,000 compounds, 20% with a hit somewhere; the sample as a whole holds those more often. Active and inactive are the calls of the source. The calls were made as follows: active = growth percent below 10; inactive = the rest.
# growth listing for each entry below

Before answering, review these 5 worked examples.
molecule="Clc1cc(Cl)cc(N2N=C(c3cccc(Nc4ccncc4)c3)CC2c2ccccc2)c1 (centres undefined)" target_system="OVCAR-5 ovarian" reported_value="80.4% (inactive)"
molecule=O=C(CSc1nc2sc3c(c2c(=O)n1Cc1ccccc1)CCCC3)N1CCN(c2ccccc2)CC1 target_system="OVCAR-5 ovarian" reported_value="102% (inactive)"
molecule=Clc1nc(Cl)c2ncn(CC3(Cn4cnc5c(Cl)nc(Cl)nc54)COC3)c2n1 target_system="OVCAR-5 ovarian" reported_value="-86% (active)"
molecule=O=C1NC(=S)NC(=O)C1=Cc1cn(Cc2ccccn2)c2ccccc12 target_system="OVCAR-5 ovarian" reported_value="-4.45% (active)"
molecule="CCC1(CC)NC(=O)c2c(c3ccc(Cl)c(Cl)c3n2C)C1C#N (centres undefined)" target_system="OVCAR-5 ovarian" reported_value="81.4% (inactive)"

I am curious: what growth value has been reported for `[O-][n+]1ccccc1CCN(O)CCc1cccc[n+]1[O-]` ?
97.7% (inactive)

Any idea what growth was measured for `Cc1[nH]n(-c2cccc(Cl)c2)c(=O)c1/C=C1\C=Nc2ccc(Br)cc21` ?
30.5% (inactive)

Quick one: growth of `CC(=O)O[C@H]1CC[C@@]2(C)[C@@H](CC[C@@H]3[C@@H]2CC[C@@]2(C)[C@H]3CC[C@]2(O)C(C)=O)C1` ?
97.7% (inactive)

Quick check: growth of `CC1(C)CC[C@]2(C(=O)NCC#CCN3CCOCC3)CC[C@]3(C)C(=CC[C@@H]4[C@@]5(C)Cc6c([nH]c7ccccc67)C(C)(C)[C@@H]5CC[C@]43C)[C@@H]2C1` ?
99.6% (inactive)
